assaySystem: T1, GIPR (UniProt P48546 22-466, limits assumed)
T1 sequence (looked up): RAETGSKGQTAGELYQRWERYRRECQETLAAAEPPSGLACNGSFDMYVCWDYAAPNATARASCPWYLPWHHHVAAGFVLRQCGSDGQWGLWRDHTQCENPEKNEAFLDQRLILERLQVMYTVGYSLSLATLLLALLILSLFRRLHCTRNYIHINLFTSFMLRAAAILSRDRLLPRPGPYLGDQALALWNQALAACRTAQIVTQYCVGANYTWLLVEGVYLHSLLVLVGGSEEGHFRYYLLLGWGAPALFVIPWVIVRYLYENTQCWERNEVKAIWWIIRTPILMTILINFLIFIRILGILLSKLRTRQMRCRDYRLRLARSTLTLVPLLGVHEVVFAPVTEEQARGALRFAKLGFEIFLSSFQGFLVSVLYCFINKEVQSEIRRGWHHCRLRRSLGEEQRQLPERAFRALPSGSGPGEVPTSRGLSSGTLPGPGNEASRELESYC
assayProtocol: cell-based or functional assay
Positions of bridges follow the written chain, without caps; N, C: chain ends. Non-standard residues stand in square brackets, D forms with d. No end group written: not given here. Ida bridge carrying fatty‑acid side chain of Intermediate A‑1 = not defined here; Aib = CC(C)(N)C(=O)O
measuredParameter: EC50, cAMP assay, (-) 1% HSA (nM)
Write it as a number; the unit nM goes unstated.

[
  {
    "binder": "Y[Aib]EGTFTSDYSI[Aib]LDKIAQKAFVKWLIAGGPSSGAPPPS-NH2 (linker 20-24 via Ida bridge carrying fatty‑acid side chain of Intermediate A‑1; reading uncertain) [polypeptide compound WX-001]",
    "endpointValue": 0.324
  },
  {
    "binder": "Y[Aib]EGTFTSDYSI[Aib]LDKKAQKAFVEWLIAGGPSSGAPPPS-NH2 (linker 17-20 via Ida; also: Ida bridge carries fatty-acid side chain of Intermediate A-1) [polypeptide WX-005]",
    "endpointValue": 0.16
  },
  {
    "binder": "Y[Aib]EGTFTSDYSI[Aib]LDKKAQKEFVEWLIAGGPSSGAPPPS-NH2 (linker 17-20 via Ida bridge carrying fatty‑acid side chain of Intermediate A‑1; reading uncertain) [polypeptide WX-009]",
    "endpointValue": 0.074
  }
]

What value of EC50, cAMP assay, (-) 1% HSA has been reported for the following binder? Y[Aib]EGTFTSDYSI[Aib]LDKKAQKAFVEWLIAGGPSSGAPPPS-NH2 (bridge 17-20; not fully specified (bridges); also: Glu bridge amino group carries fatty-acid side chain of Intermediate A-1) [polypeptide WX-010]
0.14
